biological target: MAP kinase-activated protein kinase 2 (Homo sapiens, UniProt P49137); assay: Inhibition of MAP kinase-activated protein kinase 2
Sequence (P49137 whole entry): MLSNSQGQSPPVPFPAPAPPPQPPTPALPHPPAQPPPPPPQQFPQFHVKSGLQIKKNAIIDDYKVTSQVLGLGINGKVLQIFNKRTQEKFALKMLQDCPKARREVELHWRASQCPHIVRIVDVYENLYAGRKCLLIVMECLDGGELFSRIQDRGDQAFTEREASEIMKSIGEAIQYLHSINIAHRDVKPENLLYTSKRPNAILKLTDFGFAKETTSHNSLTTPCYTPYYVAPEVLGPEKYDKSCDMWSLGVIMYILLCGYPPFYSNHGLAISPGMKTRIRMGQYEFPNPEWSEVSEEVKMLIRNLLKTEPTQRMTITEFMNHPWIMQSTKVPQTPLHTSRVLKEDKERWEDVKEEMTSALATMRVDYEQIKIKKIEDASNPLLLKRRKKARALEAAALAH
Value kind: IC50

Exercise: Please report the recorded IC50 for CC(=O)c1c(C)c2cnc(Nc3ccc(N4CCNCC4)cc3)nc2n(C2CCCC2)c1=O .
Key: > 10 µM

====

target: Cyclin-dependent kinase 2/cyclin E (Homo sapiens, UniProt P24941); test: Inhibition of [32P]ATP binding to Cyclin dependent kinase 2-cyclin E
pIC50: −log10 of the molar value.
Items are presented alongside their recorded pIC50.

Would you please look over these solved cases?
1. CN1CCN(c2ccc(Nc3ncc4ccc(=O)n(C5CCCC5)c4n3)cc2)CC1 :: 7.41
2. O=c1cc(C(F)(F)F)c2cnc(Nc3ccc(N4CCNCC4)cc3)nc2n1C1CCCC1 :: < 5.30

Exercise: Please report the recorded pIC50 for Cc1c(F)c(=O)n(C2CCCC2)c2nc(Nc3ccc(N4CCNCC4)cc3)ncc12 .
Key: < 5.30

Exercise: Please report the recorded pIC50 for O=c1ccc2cnc(Nc3ccc(N4CCOCC4)cc3)nc2n1C1CCCC1 .
Key: 7.07

====

biological target: Cyclin-dependent kinase 1/cyclin B (Homo sapiens, UniProt P06493); experiment: Inhibition of [32P]ATP binding to Cyclin dependent kinase 1-cyclin B
pIC50: −log10 of the molar value.
Items are presented alongside their recorded pIC50.

Would you please look over these solved cases?
1) Cc1cc(=O)n(C2CCCC2)c2nc(Nc3ccc(N4CCNC(C)(C)C4)cc3)ncc12 :: < 5.30
2) Cc1c(C(=O)O)c(=O)n(C2CCCC2)c2nc(Nc3ccc(N4CCNCC4)cc3)ncc12 :: < 5.30
3) CC(=O)N1CCN(c2ccc(Nc3ncc4c(C)cc(=O)n(C5CCCC5)c4n3)cc2)CC1 :: < 5.30
4) Cc1cc(=O)n(C2CCCC2)c2nc(Nc3ccc(N4CCNCC4)c(Cl)c3)ncc12 :: < 5.30
5) Cc1cc(=O)n(C2CCCC2)c2nc(Nc3ccc(N4CCN(CCO)CC4)cc3)ncc12 :: < 5.30
6) Cc1cc(=O)n(C(C)C)c2nc(Nc3ccc(N4CCNCC4)cc3)ncc12 :: < 5.30
7) Cc1c(C)c2cnc(Nc3ccc(N4CCNCC4)cc3)nc2n(C2CCCC2)c1=O :: < 5.30
8) CCc1cc(=O)n(C2CCCC2)c2nc(Nc3ccc(N4CCNCC4)cc3)ncc12 :: < 5.30
9) Cc1cc(=O)n(C2CCCC2)c2nc(Nc3ccc(N4CCC(O)C4)cc3)ncc12 (centres undefined) :: < 5.30
10) Cc1cc(=O)n(C2CCCC2)c2nc(Nc3ccc(N4CCC(CCCO)CC4)cc3)ncc12 :: < 5.30

Exercise: Please report the recorded pIC50 for Cc1cc(=O)n(C2CCCC2)c2nc(Nc3ccc(N4C[C@@H](C)N[C@@H](C)C4)cc3)ncc12 .
Key: < 5.30

Exercise: Please report the recorded pIC50 for Cc1cc(=O)n(C2CCCC2)c2nc(Nc3ccc(N4CCOCC4)cc3)ncc12 .
Key: 5.95

Exercise: Please report the recorded pIC50 for COC(=O)c1c(C)c2cnc(Nc3ccc(N4CCNCC4)cc3)nc2n(C2CCCC2)c1=O .
Key: < 5.30

Exercise: Please report the recorded pIC50 for Cc1c(Br)c(=O)n(C2CCCC2)c2nc(Nc3ccc(N4CCNCC4)cc3)ncc12 .
Key: 5.58

Exercise: Please report the recorded pIC50 for Cc1cc(=O)n(C2CCCC2)c2nc(Nc3ccc(N4CCCNCC4)cc3)ncc12 .
Key: < 5.30

Exercise: Please report the recorded pIC50 for Cc1cc(=O)n(C2CCCC2)c2nc(Nc3ccc(N4CCN(C=O)CC4)cc3)ncc12 .
Key: < 5.30

Exercise: Please report the recorded pIC50 for CCc1c(C)c2cnc(Nc3ccc(N4CCNCC4)cc3)nc2n(C2CCCC2)c1=O .
Key: 5.39

Exercise: Please report the recorded pIC50 for Cc1cc(=O)n(C2CCCC2)c2nc(Nc3ccc(N4CCN(C)CC4)cc3)ncc12 .
Key: < 5.30

Exercise: Please report the recorded pIC50 for CCOC(=O)c1c(C)c2cnc(Nc3ccc(N4CCNCC4)cc3)nc2n(C2CCCC2)c1=O .
Key: < 5.30

====

test: Inhibition of Phosphorylase kinase
pIC50: −log10 of the molar value.
Value kind: pIC50

Exercise: Please report the recorded pIC50 for CC(=O)c1c(C)c2cnc(Nc3ccc(N4CCNCC4)cc3)nc2n(C2CCCC2)c1=O .
Key: < 5.00

====

target: Cyclin-dependent kinase 2/cyclin A (Homo sapiens); assay: Inhibition of [32P]ATP binding to Cyclin dependent kinase 2-cyclin A
pIC50: −log10 of the molar value.
Value kind: pIC50

1) Cc1cc(=O)n(C2CCCC2)c2nc(Nc3ccc(N4CCN(C(=O)OC(C)(C)C)CC4)cc3)ncc12 :: < 5.30
2) Cc1cc(=O)n(C2CCCC2)c2nc(Nc3ccc(N4CCC(CCCO)CC4)cc3)ncc12 :: < 5.30

Consider the record given below.
Exercise: Please report the recorded pIC50 for Cc1c(C(=O)O)c(=O)n(C2CCCC2)c2nc(Nc3ccc(N4CCNCC4)cc3)ncc12 .
Key: < 5.30

====

molecular target: Cyclin-dependent kinase 4/cyclin D (Homo sapiens); assay: Inhibition of [32P]ATP binding to Cyclin dependant kinase 4-cyclin D
Value kind: IC50 (nM)
Quick note: give the figure in nM, leave out the unit.

1. Cc1cc(=O)n(C2CCCC2)c2nc(Nc3ccc(N4CCC(N)C4)cc3)ncc12 (centres undefined) :: 64
2. Cc1cc(=O)n(C2CCCC2)c2nc(Nc3ccc(N4CCC(CCCO)CC4)cc3)ncc12 :: 114
3. Cc1cc(=O)n(C2CCCC2)c2nc(Nc3ccc(N4CCNC(C)(C)C4)cc3)ncc12 :: 65

Consider the record given below.
Exercise: Please provide the recorded IC50 for CC(=O)N1CCN(c2ccc(Nc3ncc4c(C)cc(=O)n(C5CCCC5)c4n3)cc2)CC1 , tested on Cyclin-dependent kinase 4/cyclin D (Homo sapiens).
Key: 103

====

molecular target: Cyclin-dependent kinase 2/cyclin E (Homo sapiens, UniProt P24941); assay: Inhibition of [32P]ATP binding to Cyclin dependent kinase 2-cyclin E
Items are presented alongside their recorded IC50.

Would you please look over these solved cases?
1. Cc1cc(=O)n(C2CCCC2)c2nc(Nc3ccc(N4CCN(C(=O)OC(C)(C)C)CC4)cc3)ncc12 :: > 5 µM
2. Cc1cc(=O)n(C2CCCC2)c2nc(Nc3ccc(N4CCN(C=O)CC4)cc3)ncc12 :: > 5 µM
3. Cc1cc(=O)n(C2CCCC2)c2nc(Nc3ccc(N4CCNCC4)c(Cl)c3)ncc12 :: > 5 µM
4. Cc1cc(=O)n(C2CCCC2)c2nc(Nc3ccc(N4CCCNCC4)cc3)ncc12 :: > 5 µM
5. O=c1ccc2cnc(Nc3ccc(N4CCC(CCCO)CC4)cc3)nc2n1C1CCCC1 :: 4.55 µM
6. COC(=O)c1c(C)c2cnc(Nc3ccc(N4CCNCC4)cc3)nc2n(C2CCCC2)c1=O :: > 5 µM
7. Cc1cc(=O)n(C2CCCC2)c2nc(Nc3ccc(N4CCN(C)CC4)cc3)ncc12 :: > 5 µM
8. CCc1cc(=O)n(C2CCCC2)c2nc(Nc3ccc(N4CCNCC4)cc3)ncc12 :: > 5 µM
9. CCOC(=O)c1c(C)c2cnc(Nc3ccc(N4CCNCC4)cc3)nc2n(C2CCCC2)c1=O :: > 5 µM
10. Cc1cc(=O)n(CCC(C)C)c2nc(Nc3ccc(N4CCNCC4)cc3)ncc12 :: > 5 µM

Exercise: Please report the recorded IC50 for Cc1cc(=O)n(C2CCCC2)c2nc(Nc3ccc(N4CCC(CCCO)CC4)cc3)ncc12 .
Key: > 5 µM

Exercise: Please report the recorded IC50 for CCc1c(C)c2cnc(Nc3ccc(N4CCNCC4)cc3)nc2n(C2CCCC2)c1=O .
Key: 1.65 µM

Exercise: Please report the recorded IC50 for CC(=O)N1CCN(c2ccc(Nc3ncc4c(C)cc(=O)n(C5CCCC5)c4n3)cc2)CC1 .
Key: > 5 µM

Exercise: Please report the recorded IC50 for O=c1ccc2cnc(Nc3ccc(N4CCCCC4)cc3)nc2n1C1CCCC1 .
Key: 0.246 µM

Exercise: Please report the recorded IC50 for Cc1cc(=O)n(C2CCCC2)c2nc(Nc3ccc(N4CCOCC4)cc3)ncc12 .
Key: > 5 µM

Exercise: Please report the recorded IC50 for Cc1cc(=O)n(C2CCCC2)c2nc(Nc3ccc(N4CCNC(C)(C)C4)cc3)ncc12 .
Key: > 5 µM
